# measurement_description: A CellTox Green Cytotoxicity Assay to monitor cytotoxicity in HEK293 cells - 0 hour (AID 1224869); note: nearly all actives have a fitted effect of over 50% in size
# test_parameters: CellTox Green fluorescence; series mostly up to 76.8 µM
Active and inactive are the calls of the source. Calls come from the whole dose curve; as a rule, active = well fitted activation curve with a large enough effect in the repeat runs; inconclusive = weak or mixed curves; inactive = flat fitted curve, though single readings scatter.
Your reply should match one of these outcome classes. 1 = active, 0 = inactive

{"columns": ["compound", "assigned_class"],
 "data": [
  ["CC(C)(C)NCC(O)c1ccccc1Cl (stereo not drawn)", 0],
  ["CCCCC1C(=O)NC(=O)N(C2CCCCC2)C1=O (stereo not drawn)", 0],
  ["CN1C[C@H](C(=O)N[C@]2(C)O[C@@]3(O)[C@@H]4CCCN4C(=O)[C@H](Cc4ccccc4)N3C2=O)C=C2c3cccc4[nH]cc(c34)C[C@H]21", 0],
  ["CCOC(=O)NC(O)C(Cl)(Cl)Cl (stereo not drawn)", 0],
  ["N#CC(C#N)=Cc1ccc(O)c(O)c1", 0]
]}

Called result for C=CC(=O)OCC
0

Another: C=CCOCC1CO1 (stereo not drawn)
0

Another: CCNC(=O)NC(=O)/C(C#N)=N/OC
0

Another: CCC(C)(C)O
0

Another: CN1CC[C@]23c4c5ccc(O)c4O[C@H]2[C@@H](O)C=C[C@H]3[C@H]1C5
0

Another: Cc1cccc(C)c1NC1=NCCCS1
0

Another: C[C@H](N)[C@H](O)c1ccc(O)c(O)c1
1

Another: CC(C)(C)NCC(O)c1cc(Cl)c(N)c(C(F)(F)F)c1 (stereo not drawn)
0

Another: C[N+](C)(C)CCOC(=O)C(O)(c1ccccc1)c1ccccc1
0

Another: CC(Oc1cccc(Cl)c1)C(=O)O (stereo not drawn)
0

All values here come from PubChem BioAssay (Tox21).
